Taken from patent US10780047B2.

- protocol: Pharmacokinetics of the vaginal system in 39 women over up to 13 product-use cycles
- Format: in vivo, human
- Parameters: concentration or dose not given beside the values
- settings: female, human, serum, Cycle 1; serum; vaginal administration; mean (SD); read-out: AUC0-21day
testReadout: AUC(0-t) (ng·h/mL)
# unit: ng·h/mL | format: bare number

Query block: Which AUC(0-t) value is on record for C=C1C[C@H]2[C@@H]3CCC4=CC(=O)CC[C@@H]4[C@H]3CC[C@]2(C)[C@@]1(OC(C)=O)C(C)=O ?
Result block: 96.2

* * *

- protocol: clinical
- settings: human, in vivo
testReadout: half-life (h)
# unit: h | format: bare number

Query block: Which half-life value is on record for C=C1C[C@H]2[C@@H]3CCC4=CC(=O)CC[C@@H]4[C@H]3CC[C@]2(C)[C@@]1(OC(C)=O)C(C)=O ?
Result block: 4.5

* * *

- protocol: Pharmacokinetics of the vaginal system in 39 women over up to 13 product-use cycles
- Type: in vivo, human
- settings: female, human, serum, Cycle 13; serum; vaginal administration; mean (SD); read-out: Cmax
testReadout: Cmax
A bare number is not enough; add the unit after it.

Query block: Which Cmax value is on record for C=C1C[C@H]2[C@@H]3CCC4=CC(=O)CC[C@@H]4[C@H]3CC[C@]2(C)[C@@]1(OC(C)=O)C(C)=O ?
Result block: 0.294 ng/mL

* * *

- protocol: Pharmacokinetics of the vaginal system in 39 women over up to 13 product-use cycles
- Type: in vivo, human
- Set-up: concentration or dose not given beside the values
- settings: female, human, serum, Cycle 1; serum; vaginal administration; mean (SD); read-out: AUC0-1day
testReadout: AUC(0-t) (ng·h/mL)
# unit: ng·h/mL | format: bare number

Query block: Which AUC(0-t) value is on record for C=C1C[C@H]2[C@@H]3CCC4=CC(=O)CC[C@@H]4[C@H]3CC[C@]2(C)[C@@]1(OC(C)=O)C(C)=O ?
Result block: 15

* * *

- protocol: Pharmacokinetics of the vaginal system in 39 women over up to 13 product-use cycles
- Type: in vivo, human
- Set-up: concentration or dose not given beside the values
- settings: female, human, serum, Cycle 3; serum; vaginal administration; mean (SD); read-out: AUC0-21day
testReadout: AUC(0-t) (µg·h/mL)
# unit: µg·h/mL | format: bare number

Query block: Which AUC(0-t) value is on record for C=C1C[C@H]2[C@@H]3CCC4=CC(=O)CC[C@@H]4[C@H]3CC[C@]2(C)[C@@]1(OC(C)=O)C(C)=O [SA] ?
Result block: 0.0659

* * *

- protocol: Pharmacokinetics of the vaginal system in 39 women over up to 13 product-use cycles
- Format: in vivo, human
- Design: concentration or dose not given beside the values
- settings: female, human, serum, Cycle 3; serum; vaginal administration; mean (SD); read-out: AUC0-1day
testReadout: AUC(0-t) (ng·h/mL)
# unit: ng·h/mL | format: bare number

Query block: Which AUC(0-t) value is on record for C=C1C[C@H]2[C@@H]3CCC4=CC(=O)CC[C@@H]4[C@H]3CC[C@]2(C)[C@@]1(OC(C)=O)C(C)=O [SA] ?
Result block: 5

* * *

- protocol: Pharmacokinetics of the vaginal system in 39 women over up to 13 product-use cycles
- Type: in vivo, human
- settings: female, human, serum, Cycle 3; serum; vaginal administration; mean (SD); read-out: Cmax
testReadout: Cmax (ng/mL)
# unit: ng/mL | format: bare number

Query block: Which Cmax value is on record for C=C1C[C@H]2[C@@H]3CCC4=CC(=O)CC[C@@H]4[C@H]3CC[C@]2(C)[C@@]1(OC(C)=O)C(C)=O ?
Result block: 0.363

* * *

- protocol: Pharmacokinetics of the vaginal system in 39 women over up to 13 product-use cycles
- Type: in vivo, human
- settings: female, human, serum; product-use cycle 1, 3 and 13; vaginal administration; read-out: median Tmax
testReadout: Tmax

Query block: Which Tmax value is on record for C=C1C[C@H]2[C@@H]3CCC4=CC(=O)CC[C@@H]4[C@H]3CC[C@]2(C)[C@@]1(OC(C)=O)C(C)=O ?
Result block: ~2 h

* * *

- protocol: physchem
- settings: water
testReadout: solubility
A bare number is not enough; add the unit after it.

Query block: Which solubility value is on record for C=C1C[C@H]2[C@@H]3CCC4=CC(=O)CC[C@@H]4[C@H]3CC[C@]2(C)[C@@]1(OC(C)=O)C(C)=O [SA] ?
Result block: 18.5 µg/mL

* * *

- protocol: clinical
- settings: human, in vivo
testReadout: Vd (L/kg)
# unit: L/kg | format: bare number

Query block: Which Vd value is on record for C=C1C[C@H]2[C@@H]3CCC4=CC(=O)CC[C@@H]4[C@H]3CC[C@]2(C)[C@@]1(OC(C)=O)C(C)=O ?
Result block: 19.6

* * *

- protocol: Pharmacokinetics of the vaginal system in 39 women over up to 13 product-use cycles
- Format: in vivo, human
- Parameters: concentration or dose not given beside the values
- settings: female, human, serum, Cycle 13; serum; vaginal administration; mean (SD); read-out: AUC0-1day
testReadout: AUC(0-t) (ng·h/mL)
# unit: ng·h/mL | format: bare number

Query block: Which AUC(0-t) value is on record for C=C1C[C@H]2[C@@H]3CCC4=CC(=O)CC[C@@H]4[C@H]3CC[C@]2(C)[C@@]1(OC(C)=O)C(C)=O ?
Result block: 3.9
